- assayText: Elimination half life in female Sprague-Dawley CD rat at 1 mg/kg, iv
- Type: ADME, organism-based
- Set-up: dose 1 mg/kg, route intravenous
- runConditions: in vivo, read-out: beta t1/2 (converted)
valueKind: half-life (h)
The answer is to be given in h; state only the numeric part.

Ask: What does the data say about its half-life? Entry: "COCCN(CCOC)c1nc(C)nc2c(-c3ccc(OC)cc3C)c(C)nn12"
Result: 11.9

###

- assayText: Clearance in female Sprague-Dawley CD rat at 1 mg/kg, iv
- Format: ADME, organism-based
- Parameters: dose 1 mg/kg, route intravenous
- runConditions: in vivo
valueKind: clearance
Write the figure, then the unit, nothing else.

Ask: What does the data say about its clearance? Entry: "COCCN(CCOC)c1nc(C)nc2c(-c3ccc(OC)cc3C)c(C)nn12"
Result: 14.5 mL/min/kg

###

- experimentalSystem: Corticotropin-releasing factor receptor 1 (Rattus norvegicus)
- assayText: Displacement of [125I]Tyr0-ovine CRF from CRF1 receptor in rat cortical membrane by gamma counting
- Format: cell membranes
Please assign FALSE whenever IC50 is at or above 5 nM, and TRUE whenever it is below.

Ask: # check: IC50 < 5 nM for "CCCN(CC1CC1)c1nc(C)nc2c(-c3ccc(OC)cc3C)c(C)nn12"
Result: TRUE

Ask: # check: IC50 < 5 nM for "COCCN(CCOC)c1nc(C)nc2c(-c3cc(F)c(OC)cc3Cl)c(C)nn12"
Result: TRUE

Ask: # check: IC50 < 5 nM for "CCN(CCC#N)c1nc(C)nc2c(-c3c(C)cc(OC)cc3OC)c(C)nn12"
Result: TRUE

Ask: # check: IC50 < 5 nM for "COCCN(CCOC)c1nc(C)nc2c(-c3cc(OC)c(OC)cc3Cl)c(C)nn12"
Result: FALSE

Ask: # check: IC50 < 5 nM for "CCN(CC)c1nc(C)nc2c(-c3cc(OC)c(OC)cc3Br)c(C)nn12"
Result: TRUE

Ask: # check: IC50 < 5 nM for "COCCN(CCOC)c1nc(C)nc2c(-c3ccc(OC)cc3)c(C)nn12"
Result: FALSE

Ask: # check: IC50 < 5 nM for "CCC(CC)Nc1nc(C)nc2c(-c3ccc(OC)cc3)c(C)nn12"
Result: TRUE

Ask: # check: IC50 < 5 nM for "CCC(CC)Nc1nc(C)nc2c(-c3cc(F)c(OC)cc3C)c(C)nn12"
Result: TRUE

Ask: # check: IC50 < 5 nM for "CCCCN(CC)c1nc(C)nc2c(-c3c(C)cc(OC)cc3C)c(C)nn12"
Result: TRUE

Ask: # check: IC50 < 5 nM for "CCCN(CCC)c1nc(C)nc2c(-c3ccc(OC)cc3C)c(C)nn12"
Result: TRUE

Ask: # check: IC50 < 5 nM for "CCN(CC)c1nc(C)nc2c(-c3ccc(OC)cc3C)c(C)nn12"
Result: FALSE

Ask: # check: IC50 < 5 nM for "COCCN(CCOC)c1nc(C)nc2c(-c3cc(C)c(OC)cc3C)c(C)nn12"
Result: TRUE

Ask: # check: IC50 < 5 nM for "COCCN(CCOC)c1nc(C)nc2c(-c3cc(OC)c(OC)cc3C)c(C)nn12"
Result: FALSE

Ask: # check: IC50 < 5 nM for "COCCN(CCOC)c1nc(C)nc2c(-c3ccc(OC)cc3C)c(C)nn12"
Result: TRUE

Ask: # check: IC50 < 5 nM for "CCCCN(CC)c1nc(C)nc2c(-c3c(C)cc(OC)cc3OC)c(C)nn12"
Result: TRUE

Ask: # check: IC50 < 5 nM for "CC[C@H](C)Nc1nc(C)nc2c(-c3c(C)cc(OC)cc3OC)c(C)nn12"
Result: TRUE

Ask: # check: IC50 < 5 nM for "CCC(CC)Nc1nc(C)nc2c(-c3cc(OC)c(OC)cc3Br)c(C)nn12"
Result: FALSE

Ask: # check: IC50 < 5 nM for "CCN(CC)c1nc(C)nc2c(-c3ccc(OC)c(C)c3C)c(C)nn12"
Result: FALSE

Ask: # check: IC50 < 5 nM for "COc1ccc(-c2c(C)nn3c(N(CCC#N)C4CC4)nc(C)nc23)c(C)c1"
Result: TRUE

###

- experimentalSystem: Corticotropin-releasing factor receptor 1 (Rattus norvegicus, UniProt P35353)
- Sequence (P35353 whole entry): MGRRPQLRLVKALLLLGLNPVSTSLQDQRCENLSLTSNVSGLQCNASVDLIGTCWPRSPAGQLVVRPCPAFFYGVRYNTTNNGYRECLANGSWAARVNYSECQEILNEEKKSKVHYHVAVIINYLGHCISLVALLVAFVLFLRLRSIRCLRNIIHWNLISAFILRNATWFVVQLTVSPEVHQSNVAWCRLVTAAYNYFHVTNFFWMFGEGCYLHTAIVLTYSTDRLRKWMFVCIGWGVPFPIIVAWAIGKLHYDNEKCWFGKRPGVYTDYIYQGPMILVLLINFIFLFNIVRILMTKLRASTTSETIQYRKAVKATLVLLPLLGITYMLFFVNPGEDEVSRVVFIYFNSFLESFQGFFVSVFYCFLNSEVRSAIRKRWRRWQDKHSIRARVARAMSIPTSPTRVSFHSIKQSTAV
- assayText: Antagonist activity at CRF1 receptor in rat brain homogenates assessed as inhibition of CRF-stimulted cAMP production
- Format: functional, tissue-based
valueKind: IC50

Ask: Field: IC50 (Corticotropin-releasing factor receptor 1 (Rattus norvegicus, UniProt P35353)). Entry: "H-DLTFHLLREMLEMAKAEQEAEQAALNRLLLEEA-NH2"
Result: 264 nM

###

- assayText: Oral bioavailability in Beagle dog at 20 mg/kg
- Assay type: ADME, organism-based, Canis lupus familiaris
- runConditions: in vivo
valueKind: bioavailability

Ask: What does the data say about its bioavailability? Entry: "CC[C@@H](C)Nc1nc(C)nc2c(-c3c(C)cc(OC)cc3OC)c(C)nn12"
Result: 4.7%

###

- experimentalSystem: Corticotropin-releasing factor-binding protein (Homo sapiens, UniProt P24387)
- Sequence (P24387 whole entry): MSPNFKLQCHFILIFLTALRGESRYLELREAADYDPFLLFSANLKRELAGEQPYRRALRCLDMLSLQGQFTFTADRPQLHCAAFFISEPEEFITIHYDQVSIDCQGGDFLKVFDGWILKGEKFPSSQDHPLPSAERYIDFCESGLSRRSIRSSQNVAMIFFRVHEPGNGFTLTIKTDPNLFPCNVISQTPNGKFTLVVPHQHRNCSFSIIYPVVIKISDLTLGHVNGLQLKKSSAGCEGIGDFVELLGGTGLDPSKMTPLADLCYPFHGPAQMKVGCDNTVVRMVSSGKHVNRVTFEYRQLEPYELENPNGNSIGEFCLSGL
- assayText: Binding affinity to human recombinant CRF binding protein
Give IC50 for every item shown.

Ask: What does the data say about its IC50? Entry: "COCCN(CCOC)c1nc(C)nc2c(-c3cc(C)c(OC)cc3C)c(C)nn12"
Result: > 1000 nM

Ask: What does the data say about its IC50? Entry: "COCCN(CCOC)c1nc(C)nc2c(-c3ccc(OC)cc3C)c(C)nn12"
Result: > 1000 nM

Ask: What does the data say about its IC50? Entry: "CCC(CC)Nc1nc(C)nc2c(-c3cc(F)c(OC)cc3Cl)c(C)nn12"
Result: > 1000 nM

Ask: What does the data say about its IC50? Entry: "CC[C@@H](C)Nc1nc(C)nc2c(-c3c(C)cc(OC)cc3OC)c(C)nn12"
Result: > 1000 nM

###

Give bioavailability for every item shown.
- assayText: Oral bioavailability in Beagle dog at 5 mg/kg
- Format: ADME, organism-based, Canis lupus familiaris
- runConditions: in vivo
The answer is to be given in %; state only the numeric part.

Ask: What does the data say about its bioavailability? Entry: "COCCN(CCOC)c1nc(C)nc2c(-c3ccc(OC)cc3C)c(C)nn12"
Result: 34

Ask: What does the data say about its bioavailability? Entry: "COCCN(CCOC)c1nc(C)nc2c(-c3cc(C)c(OC)cc3C)c(C)nn12"
Result: 48

###

Give IC50 for every item shown.
- experimentalSystem: Corticotropin-releasing factor receptor 1 (Rattus norvegicus, UniProt P35353)
- assayText: Antagonist activity at CRF1 receptor in rat brain homogenates assessed as inhibition of CRF-stimulted cAMP production
- Type: functional, tissue-based
The answer is to be given in nM; state only the numeric part.

Ask: What does the data say about its IC50? Entry: "CC[C@@H](C)Nc1nc(C)nc2c(-c3c(C)cc(OC)cc3OC)c(C)nn12"
Result: 110

Ask: What does the data say about its IC50? Entry: "CCC(CC)Nc1nc(C)nc2c(-c3cc(F)c(OC)cc3Cl)c(C)nn12"
Result: 36

Ask: What does the data say about its IC50? Entry: "COCCN(CCOC)c1nc(C)nc2c(-c3cc(C)c(OC)cc3C)c(C)nn12"
Result: 38

Ask: What does the data say about its IC50? Entry: "COCCN(CCOC)c1nc(C)nc2c(-c3ccc(OC)cc3C)c(C)nn12"
Result: 66

###

- assayText: Volume of distribution at steady state in Beagle dog at 1 mg/kg, iv
- Format: ADME, organism-based, Canis lupus familiaris
- Set-up: dose 1 mg/kg, route intravenous
- runConditions: in vivo, read-out: Vdss
valueKind: Vd (L/kg)
The answer is to be given in L/kg; state only the numeric part.

Ask: What does the data say about its Vd? Entry: "CC[C@@H](C)Nc1nc(C)nc2c(-c3c(C)cc(OC)cc3OC)c(C)nn12"
Result: 14.8

###

Give IC50 for every item shown.

Ask: Field: IC50 (Alpha-1A adrenergic receptor (Homo sapiens, UniProt P35348)). Entry: "CCC(CC)Nc1nc(C)nc2c(-c3cc(F)c(OC)cc3Cl)c(C)nn12"
Result: > 1000 nM

Ask: Field: IC50 (Alpha-1A adrenergic receptor (Homo sapiens, UniProt P35348)). Entry: "COCCN(CCOC)c1nc(C)nc2c(-c3ccc(OC)cc3C)c(C)nn12"
Result: > 1000 nM

Ask: Field: IC50 (Alpha-1A adrenergic receptor (Homo sapiens, UniProt P35348)). Entry: "CC[C@@H](C)Nc1nc(C)nc2c(-c3c(C)cc(OC)cc3OC)c(C)nn12"
Result: > 1000 nM
